assay: Aqueous solubility in 0.01 M Hcl at pH 2 at 10 mg/ml after 4 hrs by UV-HPLC method; type: physicochemical; settings: buffer, pH 2, 4 h
experimental-readout: log10 solubility (log10 of the value in µg/mL)
Values reflect log10 of reported solubility (µg/mL).

{"mol": "Cc1cc(CCC#N)cc(C)c1Oc1cc(Nc2ccc(C#N)cc2)c(N)cc1CNC1CC1", "log10 solubility": 2.44}
{"mol": "Cc1cc(CCC#N)cc(C)c1Oc1cc(Nc2ccc(C#N)cc2)c(N)cc1C(=O)NC1CC1", "log10 solubility": 2.15}
{"mol": "CCNC(=O)c1cc(N)c(Nc2ccc(C#N)cc2)cc1Oc1c(C)cc(CCC#N)cc1C", "log10 solubility": 1.84}
{"mol": "CNC(=O)c1cc(N)c(Nc2ccc(C#N)cc2)cc1Oc1c(Br)cc(CCC#N)cc1OC", "log10 solubility": 1.41}
{"mol": "COC(=O)c1cc(N)c(Nc2ccc(C#N)cc2)cc1Oc1c(Br)cc(CCC#N)cc1OC", "log10 solubility": 0.24}
{"mol": "Cc1cc(CCC#N)cc(C)c1Oc1cc(Nc2ccc(C#N)cc2)c(N)cc1CN(C)C", "log10 solubility": 2.41}
{"mol": "Cc1cc(CCC#N)cc(C)c1Oc1cc(Nc2ccc(C#N)cc2)c(N)cc1COC(=O)C1CC1", "log10 solubility": 0.09}
{"mol": "Cc1cc(CCC#N)cc(C)c1Oc1cc(Nc2ccc(C#N)cc2)c(N)cc1Br", "log10 solubility": -0.60}

Lab note: next molecule to report on.
Short answer for `Cc1cc(CCC#N)cc(C)c1Oc1cc(Nc2ccc(C#N)cc2)c(N)cc1C(=O)N(C)C` : log10 solubility was 1.81

----------
test system: Human immunodeficiency virus 1; test: Antiviral activity against rilpivirine resistant HIV1 harboring reverse transcriptase E138K mutant assessed as inhibition of viral infection in human TZM-bl cells measured after 1 day by luciferase reporter gene assay; assay type: functional, organism-based; conditions: Human immunodeficiency virus 1, TZM-bl, 24 h
The entries below are paired with their reported EC50.
Number in nM, nothing else.

{"mol": "Cc1cc(CCC#N)cc(C)c1Oc1cc(Nc2ccc(C#N)cc2)c(N)cc1C(=O)NC1CC1", "experimental-readout": "EC50", "reported-value": 22.1}

Short answer for `CNC(=O)c1cc(N)c(Nc2ccc(C#N)cc2)cc1Oc1c(Br)cc(CCC#N)cc1OC` : EC50 was 12.5

Short answer for `Cc1cc(CCC#N)cc(C)c1Oc1cc(Nc2ccc(C#N)cc2)c(N)cc1Br` : EC50 was 65.2

Short answer for `Cc1cc(CCC#N)cc(C)c1Oc1cc(Nc2ccc(C#N)cc2)c(N)cc1C(=O)N(C)C` : EC50 was 11.7

Short answer for `Cc1cc(CCC#N)cc(C)c1Oc1cc(Nc2ccc(C#N)cc2)c(N)cc1Cl` : EC50 was 19.7

Short answer for `CC(=O)OCc1cc(N)c(Nc2ccc(C#N)cc2)cc1Oc1c(C)cc(CCC#N)cc1C` : EC50 was 39.1

Short answer for `Cc1cc(CCC#N)cc(C)c1Oc1cc(Nc2ccc(C#N)cc2)c(N)cc1CN(C)C` : EC50 was 23.4

Short answer for `Cc1cc(CCC#N)cc(C)c1Oc1cc(Nc2ccc(C#N)cc2)c(N)cc1COC(=O)C1CC1` : EC50 was 23.3

Short answer for `Cc1cc(CCC#N)cc(C)c1Oc1ccc(N)c(Nc2ccc(C#N)cc2)c1` : EC50 was 113

Short answer for `Cc1cc(CCC#N)cc(C)c1Oc1cc(Nc2ccc(C#N)cc2)c(N)cc1CNC1CC1` : EC50 was 25.7

----------
experiment: Cytotoxicity against human TZM-bl cells assessed as reduction in cell viability after 1 day by CytoTox-Glo assay; assay type: cell-based; conditions: TZM-bl cells
experimental-readout: CC50 at 24 h

{"mol": "COCc1cc(N)c(Nc2ccc(C#N)cc2)cc1Oc1c(C)cc(CCC#N)cc1C", "experimental-readout": "CC50 at 24 h", "reported-value": "> 200 µM"}
{"mol": "Cc1cc(/C=C/C#N)cc(C)c1Nc1ccnc(Nc2ccc(C#N)cc2)n1", "experimental-readout": "CC50 at 24 h", "reported-value": "> 30 µM"}

Short answer for `Cc1cc(CCC#N)cc(C)c1Oc1ccc(N)c(Nc2ccc(C#N)cc2)c1` : CC50 at 24 h was > 200 µM

----------
assay: Cytotoxicity against human TZM-bl cells assessed as reduction in cell viability after 1 day by CytoTox-Glo assay; format: cell-based; conditions: tzm, 24 h
param class (str): category from CC50; see ranges bin 1 = under 40 µM, bin 2 = from 40 µM up to 80 µM, bin 3 = 80 µM and over

{"mol": "Cc1cc(CCC#N)cc(C)c1Oc1cc(Nc2ccc(C#N)cc2)c(N)cc1C(=O)N(C)C", "class-name": "bin 1"}

Incoming: Looking at `Cc1cc(CCC#N)cc(C)c1Oc1cc(Nc2ccc(C#N)cc2)c(N)cc1C(=O)NC(C)C` , which class would you pick?
Outgoing: bin 3

Incoming: Looking at `CC(=O)OCc1cc(N)c(Nc2ccc(C#N)cc2)cc1Oc1c(C)cc(CCC#N)cc1C` , which class would you pick?
Outgoing: bin 2

Incoming: Looking at `Cc1cc(CCC#N)cc(C)c1Oc1cc(Nc2ccc(C#N)cc2)c(N)cc1CN(C)C` , which class would you pick?
Outgoing: bin 1

----------
test: Metabolic stability in human liver microsomes assessed as parent compound remaining at 1 uM incubated for 30 mins in presence of NADPH by LC-MS analysis; assay type: ADME; conditions: read-out: Stability
experimental-readout: remaining at 0.5 h, 1 µM

See these solved cases before continuing.
{"mol": "Cc1cc(CCC#N)cc(C)c1Oc1cc(Nc2ccc(C#N)cc2)c(N)cc1Br", "remaining at 0.5 h, 1 µM": "58.3%"}
{"mol": "Cc1cc(CCC#N)cc(C)c1Oc1cc(Nc2ccc(C#N)cc2)c(N)cc1CNC1CC1", "remaining at 0.5 h, 1 µM": "78.4%"}
{"mol": "Cc1cc(CCC#N)cc(C)c1Oc1cc(Nc2ccc(C#N)cc2)c(N)cc1COC(=O)C1CC1", "remaining at 0.5 h, 1 µM": "4.18%"}
{"mol": "Cc1cc(CCC#N)cc(C)c1Oc1cc(Nc2ccc(C#N)cc2)c(N)cc1C(=O)N(C)C", "remaining at 0.5 h, 1 µM": "72.2%"}
{"mol": "CC(=O)OCc1cc(N)c(Nc2ccc(C#N)cc2)cc1Oc1c(C)cc(CCC#N)cc1C", "remaining at 0.5 h, 1 µM": "3%"}

Short answer for `CCNC(=O)c1cc(N)c(Nc2ccc(C#N)cc2)cc1Oc1c(C)cc(CCC#N)cc1C` : remaining at 0.5 h, 1 µM was 85.2%

Short answer for `COCc1cc(N)c(Nc2ccc(C#N)cc2)cc1Oc1c(C)cc(CCC#N)cc1C` : remaining at 0.5 h, 1 µM was 90.8%

Short answer for `Cc1cc(CCC#N)cc(C)c1Oc1cc(Nc2ccc(C#N)cc2)c(N)cc1CN(C)C` : remaining at 0.5 h, 1 µM was 93.3%

Short answer for `Cc1cc(/C=C/C#N)cc(C)c1Nc1ccnc(Nc2ccc(C#N)cc2)n1` : remaining at 0.5 h, 1 µM was 80.2%

Short answer for `CNC(=O)c1cc(N)c(Nc2ccc(C#N)cc2)cc1Oc1c(Br)cc(CCC#N)cc1OC` : remaining at 0.5 h, 1 µM was 75.7%

Short answer for `COC(=O)c1cc(N)c(Nc2ccc(C#N)cc2)cc1Oc1c(Br)cc(CCC#N)cc1OC` : remaining at 0.5 h, 1 µM was 81.5%

Short answer for `Cc1cc(CCC#N)cc(C)c1Oc1cc(Nc2ccc(C#N)cc2)c(N)cc1C(=O)NC1CC1` : remaining at 0.5 h, 1 µM was 63.2%

----------
The entries below are paired with their reported Ratio CC50/EC50.
assay: Selectivity index, ratio of CC50 for human TZM-bl cells to EC50 for HIV1 3B infected in human MT2 cells; assay type: toxicity, cell-based
Output spec: single numeric token, no unit.

See these solved cases before continuing.
{"mol": "COC(=O)c1cc(N)c(Nc2ccc(C#N)cc2)cc1Oc1c(OC)cc(CCC#N)cc1OC", "Ratio CC50/EC50": 389}
{"mol": "Cc1cc(CCC#N)cc(C)c1Oc1cc(Nc2ccc(C#N)cc2)c(N)cc1CN(C)C", "Ratio CC50/EC50": 11019}
{"mol": "CCOCc1cc(N)c(Nc2ccc(C#N)cc2)cc1Oc1c(C)cc(CCC#N)cc1C", "Ratio CC50/EC50": 51596}

Short answer for `Cc1cc(CCC#N)cc(C)c1Oc1cc(Nc2ccc(C#N)cc2)c(N)cc1Cl` : Ratio CC50/EC50 was 6303

----------
The entries below are paired with their reported EC50.
test system: Human immunodeficiency virus 1; assay: Antiviral activity against HIV1 3B infected in human MT2 cells measured on day 4 post infection by p24 ELISA method; assay type: functional, organism-based; conditions: Human immunodeficiency virus 1, 3B, MT2, 96 h

{"mol": "Cc1cc(CCC#N)cc(C)c1Oc1cc(Nc2ccc(C#N)cc2)c(N)cc1CN(C)C", "experimental-readout": "EC50", "reported-value": "2.16 nM"}

Short answer for `COC(=O)c1cc(N)c(Nc2ccc(C#N)cc2)cc1Oc1c(Br)cc(CCC#N)cc1OC` : EC50 was < 0.122 nM

Short answer for `Cc1cc(CCC#N)cc(C)c1Oc1ccc(N)c(Nc2ccc(C#N)cc2)c1` : EC50 was 11.6 nM

Short answer for `Cc1cc(CCC#N)cc(C)c1Oc1cc(Nc2ccc(C#N)cc2)c(N)cc1C(=O)N(C)C` : EC50 was 1.59 nM

Short answer for `CNC(=O)c1cc(N)c(Nc2ccc(C#N)cc2)cc1Oc1c(Br)cc(CCC#N)cc1OC` : EC50 was 2.1 nM

Short answer for `CCNC(=O)c1cc(N)c(Nc2ccc(C#N)cc2)cc1Oc1c(C)cc(CCC#N)cc1C` : EC50 was 17.1 nM

Short answer for `Cc1cc(CCC#N)cc(C)c1Oc1cc(Nc2ccc(C#N)cc2)c(N)cc1C(=O)NC1CC1` : EC50 was 9.58 nM

Short answer for `CCOCc1cc(N)c(Nc2ccc(C#N)cc2)cc1Oc1c(C)cc(CCC#N)cc1C` : EC50 was 3.76 nM

Short answer for `CNC(=O)c1cc(N)c(Nc2ccc(C#N)cc2)cc1Oc1c(OC)cc(CCC#N)cc1OC` : EC50 was 137 nM

Short answer for `Cc1cc(CCC#N)cc(C)c1Oc1cc(Nc2ccc(C#N)cc2)c(N)cc1Br` : EC50 was 0.49 nM

Short answer for `Cc1cc(CCC#N)cc(C)c1Oc1cc(Nc2ccc(C#N)cc2)c(N)cc1CNC1CC1` : EC50 was 6.25 nM

Short answer for `CNC(=O)OCc1cc(N)c(Nc2ccc(C#N)cc2)cc1Oc1c(C)cc(CCC#N)cc1C` : EC50 was 8.32 nM

Short answer for `Cc1cc(CCC#N)cc(C)c1Oc1cc(Nc2ccc(C#N)cc2)c(N)cc1C(=O)NC(C)C` : EC50 was 47.7 nM

Short answer for `Cc1cc(CCC#N)cc(C)c1Oc1cc(Nc2ccc(C#N)cc2)c(N)cc1Cl` : EC50 was 1.65 nM

Short answer for `Cc1cc(CCC#N)cc(C)c1Oc1cc(Nc2ccc(C#N)cc2)c(N)cc1COC(=O)C1CC1` : EC50 was 23.2 nM

Short answer for `COC(=O)c1cc(N)c(Nc2ccc(C#N)cc2)cc1Oc1c(OC)cc(CCC#N)cc1OC` : EC50 was 329 nM
